# assaySystem: rat mGlu2 receptor (Rattus norvegicus)
# Sequence (P31421 19-872): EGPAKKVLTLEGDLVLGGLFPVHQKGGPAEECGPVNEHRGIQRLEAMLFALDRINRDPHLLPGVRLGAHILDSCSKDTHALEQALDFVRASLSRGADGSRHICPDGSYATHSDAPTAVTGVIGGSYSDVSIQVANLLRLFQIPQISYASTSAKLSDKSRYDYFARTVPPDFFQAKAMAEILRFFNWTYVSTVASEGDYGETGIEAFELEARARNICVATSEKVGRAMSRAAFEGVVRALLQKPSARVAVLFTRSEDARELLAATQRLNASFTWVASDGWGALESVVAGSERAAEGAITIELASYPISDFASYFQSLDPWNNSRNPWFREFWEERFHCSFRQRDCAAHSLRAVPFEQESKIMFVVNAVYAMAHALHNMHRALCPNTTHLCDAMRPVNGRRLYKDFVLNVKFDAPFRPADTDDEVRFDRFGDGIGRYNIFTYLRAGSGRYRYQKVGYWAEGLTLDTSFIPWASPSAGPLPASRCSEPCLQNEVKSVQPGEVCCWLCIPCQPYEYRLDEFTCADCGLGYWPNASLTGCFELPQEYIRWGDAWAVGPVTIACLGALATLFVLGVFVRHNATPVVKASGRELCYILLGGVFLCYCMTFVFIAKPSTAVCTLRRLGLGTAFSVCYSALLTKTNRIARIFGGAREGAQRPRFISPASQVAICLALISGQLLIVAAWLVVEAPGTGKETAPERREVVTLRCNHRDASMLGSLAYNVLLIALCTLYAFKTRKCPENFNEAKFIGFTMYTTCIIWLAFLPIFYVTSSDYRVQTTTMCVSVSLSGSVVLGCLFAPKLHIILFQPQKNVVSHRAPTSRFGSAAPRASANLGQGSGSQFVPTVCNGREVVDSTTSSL
# procedureSummary: [35S]GTPγS binding test (1), membranes of CHO cells stably expressing rat mGlu2
# runParameters: inhibition of glutamic acid (20 μM)-stimulated specific [35S]GTPγS binding
quantity: IC50 (nM)

Cn1ncc(-c2nc(-c3ccc(S(N)(=O)=O)cc3)no2)c1CCc1ccc(C(F)(F)F)cc1 [Example 19]; 8.69
Cn1ncc(-c2nc(-c3cccc(S(N)(=O)=O)c3)no2)c1COc1ccc(C(F)(F)F)cc1 [Example 37]; 1.29
Cn1ncc(-c2nc(-c3cccc(S(N)(=O)=O)c3)no2)c1-c1cnn(-c2ccc(Cl)cc2)c1 [Example 25]; 27.5

[A] Cn1ncc(-c2nc(-c3cccc(S(N)(=O)=O)c3)no2)c1COc1cccc(F)c1 [Example 68]
[B] Cn1ncc(-c2nc(-c3cccc(S(N)(=O)=O)c3)no2)c1COc1cccc(OC(F)(F)F)c1 [Example 69]
[C] Cn1ncc(-c2nc(-c3cccc(S(N)(=O)=O)c3)co2)c1CCc1ccc(C(F)(F)F)cc1 [Example 10]
[D] Cn1ncc(-c2nc(-c3cccc(S(N)(=O)=O)c3)no2)c1C#Cc1ccc(C(F)(F)F)cn1 [Example 7]
Reorder the items by IC50, least to greatest. I would appreciate it if you listed the labels in the requested order.
B, A, C, D
(B: 3.56 nM, A: 6.9 nM, C: 10.1 nM, D: 17.6 nM)

[I] NS(=O)(=O)c1cccc(-c2noc(-c3cnn(CF)c3CCc3ccc(C(F)(F)F)cc3)n2)c1 [Example 41]
[II] COc1cccc(OCc2c(-c3nc(-c4cccc(S(N)(=O)=O)c4)no3)cnn2C)c1 [Example 66]
[III] Cn1ncc(-c2nc(-c3cccc(S(N)(=O)=O)c3)no2)c1CNc1ccc(C(F)(F)F)cc1 [Example 9]
// sort entries: IC50, high to low I would appreciate it if you listed the labels in the requested order.
III, I, II

[1] CCn1ncc(-c2nc(-c3cccc(S(N)(=O)=O)c3)no2)c1CCc1ccc(C(F)(F)F)cc1 [Example 39]
[2] CN(C)CCNS(=O)(=O)c1ccc(-c2noc(-c3cnn(C)c3CCc3ccc(C(F)(F)F)cc3)n2)cc1 [Example 31]
Determine, for 1 and 2 , which has the greater value of IC50. Selection: enter the item's label.
2
(2: 22 nM, 1: 12 nM)
